species: Bos taurus; experiment: Inhibition of bovine trypsin assessed as protease activity using D-CHA-AR-AMC as substrate at 0.1 uM by fluorescence assay relative to control; design: scale not given: the % may be the effect or the level left
Response key: Y means Activity >= 10%; N means Activity < 10%.

Below, 4 compounds whose answers are already recorded.
smilesrepr=N=C(N)Nc1ccc(C(=O)Oc2cc(CCC(=O)O)cn3ncnc23)cc1 answerlabel=Y
smilesrepr=N=C(N)Nc1ccc(C(=O)Oc2ccc(CC(=O)O)n3ncnc23)cc1Cl answerlabel=N
smilesrepr=N=C(N)Nc1ccc(C(=O)Oc2ccc(CCC(=O)O)n3ncnc23)cc1 answerlabel=Y
smilesrepr=N=C(N)Nc1ccc(C(=O)Oc2ccc(CC(=O)O)n3ncnc23)c(C(F)(F)F)c1 answerlabel=N

Hi, just wondering whether N#CNC(=N)c1ccc(C(=O)Oc2ccc(CC(=O)O)n3ncnc23)cc1 shows Activity of 10% or higher. N

Hi, just wondering whether N=C(N)Nc1ccc(C(=O)Oc2ccc(CC(=O)O)n3ccnc23)cc1 shows Activity of 10% or higher. Y

Hi, just wondering whether N=C(N)Nc1ccc(C(=O)Oc2ccc(Cc3nn[nH]n3)n3ncnc23)cc1 shows Activity of 10% or higher. Y

Hi, just wondering whether N=C(N)Nc1ccc(C(=O)Oc2ccc(CC(=O)N(CC(=O)O)CC(=O)O)n3ncnc23)cc1 shows Activity of 10% or higher. Y

Hi, just wondering whether N=C(N)Nc1ccc(C(=O)Oc2ccc(CCC(=O)O)n3ccnc23)cc1 shows Activity of 10% or higher. Y

---

assay: Clearance in C57BL/6J mouse at 5 mg/kg, iv; assay type: ADME, organism-based; details: in vivo
measuredParameter: clearance

# clearance of N=C(N)Nc1ccc(C(=O)Oc2ccc(CC(=O)O)n3ncnc23)cc1 = 192 mL/min/kg

---

species: Bos taurus; assay: Inhibition of bovine trypsin assessed as protease activity using D-CHA-AR-AMC as substrate at 0.1 uM by fluorescence assay relative to control; set-up: scale not given: the % may be the effect or the level left
Response key: label 1 means Activity >= 10%; label 0 means Activity < 10%.

compound=COc1cc(C(=O)Oc2ccc(CC(=O)O)n3ncnc23)ccc1NC(=N)N answerlabel="label 1"

Hi, just wondering whether N=C1NCCN1c1ccc(C(=O)Oc2ccc(CC(=O)O)n3ncnc23)cc1 shows Activity of 10% or higher. label 1

Hi, just wondering whether N=C(N)Nc1ccc(C(=O)Oc2ccc(C3OC(=O)NC3=O)n3ncnc23)cc1 (configuration not stated) shows Activity of 10% or higher. label 1

Hi, just wondering whether N=C(N)Nc1ccc(C(=O)Oc2ccc(CC(=O)O)n3ncnc23)s1 shows Activity of 10% or higher. label 1

Hi, just wondering whether CS(=O)(=O)NC(=O)Cc1ccc(OC(=O)c2ccc(NC(=N)N)cc2)c2ncnn12 shows Activity of 10% or higher. label 1

Hi, just wondering whether N=C(N)Nc1ccc(C(=O)Oc2ccc(CC(=O)O)n3ncnc23)cc1F shows Activity of 10% or higher. label 1

Hi, just wondering whether Cc1cc(C(=O)Oc2ccc(CC(=O)O)n3ncnc23)ccc1NC(=N)N shows Activity of 10% or higher. label 0

---

biological target: Enteropeptidase (Homo sapiens); test: Inhibition of full length recombinant human EP expressed in CHO cells assessed as protease activity using […] as substrate at 0.1 uM by fluorescence assay relative to control; design: scale not given: the % may be the effect or the level left
Response key: true (1) means Activity >= 50%; false (0) means Activity < 50%.

molecule=N#Cc1cc(C(=O)Oc2ccc(CC(=O)O)n3ncnc23)ccc1NC(=N)N answerlabel="false (0)"
molecule=N=C(N)Nc1ccc(C(=O)Oc2ccc(CC(=O)N[C@@H](CC(=O)O)C(=O)O)n3ncnc23)cc1 answerlabel="false (0)"
molecule=CC(=N)Nc1ccc(C(=O)Oc2ccc(CC(=O)O)n3ncnc23)cc1 answerlabel="false (0)"
molecule=N=C1NCCN1c1ccc(C(=O)Oc2ccc(CC(=O)O)n3ncnc23)cc1 answerlabel="false (0)"
molecule=CN(C(=N)N)c1ccc(C(=O)Oc2ccc(CC(=O)O)n3ncnc23)cc1 answerlabel="false (0)"
molecule=N=C(N)Nc1ccc(C(=O)Oc2ccc(Cc3nn[nH]n3)n3ncnc23)cc1 answerlabel="true (1)"
molecule=N=C(N)NCc1ccc(C(=O)Oc2ccc(CC(=O)O)n3ncnc23)cc1 answerlabel="false (0)"
molecule=N=C(N)Nc1ccc(C(=O)Oc2ccc(CC(=O)O)n3ncnc23)cc1Cl answerlabel="false (0)"
molecule=N=C(N)Nc1ccc(C(=O)Oc2ccc(CC(=O)NC(CC(=O)O)(CC(=O)O)CC(=O)O)n3ncnc23)cc1 answerlabel="false (0)"
molecule=Cc1cc(C(=O)Oc2ccc(CC(=O)O)n3ncnc23)ccc1NC(=N)N answerlabel="false (0)"

Query molecule follows.
Hi, just wondering whether N=C(N)Nc1ccc(C(=O)Oc2cc(CC(=O)O)cn3ncnc23)cc1 shows Activity of 50% or higher. false (0)

---

biological target: Enteropeptidase (Homo sapiens) (UniProt P98073); experiment: Inhibition of full length recombinant human EP expressed in CHO cells assessed as protease activity using […] as substrate at 1 uM by fluorescence assay relative to control; design: scale not given: the % may be the effect or the level left
Sequence (P98073 2-784 limits assumed): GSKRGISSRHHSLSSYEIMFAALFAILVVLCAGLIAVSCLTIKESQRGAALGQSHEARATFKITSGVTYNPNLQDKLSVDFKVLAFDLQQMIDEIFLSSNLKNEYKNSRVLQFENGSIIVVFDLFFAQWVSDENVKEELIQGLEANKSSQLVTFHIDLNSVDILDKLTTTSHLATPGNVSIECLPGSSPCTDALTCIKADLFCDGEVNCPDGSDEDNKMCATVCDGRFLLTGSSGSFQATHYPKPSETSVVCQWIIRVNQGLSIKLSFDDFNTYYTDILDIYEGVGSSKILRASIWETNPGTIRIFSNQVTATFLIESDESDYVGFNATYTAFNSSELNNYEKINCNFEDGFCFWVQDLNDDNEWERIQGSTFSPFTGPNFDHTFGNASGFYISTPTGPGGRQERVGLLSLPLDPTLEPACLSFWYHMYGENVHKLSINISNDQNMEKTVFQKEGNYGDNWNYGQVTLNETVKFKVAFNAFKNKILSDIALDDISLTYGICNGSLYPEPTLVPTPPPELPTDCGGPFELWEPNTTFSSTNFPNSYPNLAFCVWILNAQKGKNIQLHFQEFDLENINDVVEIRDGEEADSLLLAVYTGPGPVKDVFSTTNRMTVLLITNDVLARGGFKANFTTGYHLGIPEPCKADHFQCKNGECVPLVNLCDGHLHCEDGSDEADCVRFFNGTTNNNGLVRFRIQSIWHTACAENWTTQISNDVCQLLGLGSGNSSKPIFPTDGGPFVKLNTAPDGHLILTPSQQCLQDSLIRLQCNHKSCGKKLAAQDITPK
Sequence (P98073 785-1019 limits assumed): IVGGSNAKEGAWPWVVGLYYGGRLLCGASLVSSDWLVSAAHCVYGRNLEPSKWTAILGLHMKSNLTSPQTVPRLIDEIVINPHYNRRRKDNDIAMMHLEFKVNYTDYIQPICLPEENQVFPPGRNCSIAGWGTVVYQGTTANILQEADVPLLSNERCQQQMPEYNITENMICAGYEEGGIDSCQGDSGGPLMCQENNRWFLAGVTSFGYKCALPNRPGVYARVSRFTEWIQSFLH
molecules and their reported Activity
Give just the number in %; leave the unit off.

Please review the entries below; each comes with its answer.
molecule=O=C(O)Cc1ccc(OC(=O)c2ccc(NC3=NCCN3)cc2)c2ncnn12 measuredparameter=Activity number=-2.47
molecule=N=C(N)Nc1ccc(C(=O)Oc2ccc(Cc3nn[nH]n3)n3ncnc23)cc1 measuredparameter=Activity number=101
molecule=N=C(N)Nc1ccc(C(=O)Oc2ccc(CC(=O)O)n3ncnc23)c(C(F)(F)F)c1 measuredparameter=Activity number=38.5

# Activity of Cc1cc(C(=O)Oc2ccc(CC(=O)O)n3ncnc23)ccc1NC(=N)N = 6.3

# Activity of N=C(N)Nc1ccc(C(=O)Oc2ccc(CC(=O)N[C@@H](CC(=O)O)C(=O)O)n3ncnc23)cc1 = 101

# Activity of N=C(N)Nc1ccc(C(=O)Oc2ccc(CC(=O)O)n3ncnc23)c(Cl)c1 = 100

# Activity of N=C(N)Nc1ccc(C(=O)Oc2ccc(CC(=O)NC(CC(=O)O)(CC(=O)O)CC(=O)O)n3ncnc23)cc1 = 100

# Activity of N=C(N)Nc1ccc(C(=O)Oc2ccc(CC(=O)O)n3ncnc23)c(F)c1 = 100

# Activity of N=C(N)NCc1ccc(C(=O)Oc2ccc(CC(=O)O)n3ncnc23)cc1 = 43.7

# Activity of N=C(N)Nc1ccc(C(=O)Oc2cc(CCC(=O)O)cn3ncnc23)cc1 = 103

# Activity of C/N=C(\NC)Nc1ccc(C(=O)Oc2ccc(CC(=O)O)n3ncnc23)cc1 = 1.32

# Activity of N=C1NCCN1c1ccc(C(=O)Oc2ccc(CC(=O)O)n3ncnc23)cc1 = 57.9

# Activity of Cc1cc(NC(=N)N)ccc1C(=O)Oc1ccc(CC(=O)O)n2ncnc12 = 59.9

# Activity of N=C(N)Nc1cccc(C(=O)Oc2ccc(CC(=O)O)n3ncnc23)c1 = -6.7

# Activity of N=C(N)Nc1ccc(C(=O)Oc2ccc(CC(=O)N[C@@H](CC(=O)O)C(=O)O)n3ccnc23)cc1 = 100

---

species on record: Bos taurus; assay: Inhibition of bovine trypsin assessed as protease activity using D-CHA-AR-AMC as substrate at 1 uM by fluorescence assay relative to control; parameters: scale not given: the % may be the effect or the level left
measuredParameter: Activity (%)
Give just the number in %; leave the unit off.

Please review the entries below; each comes with its answer.
compound=N=C(N)Nc1ccc(C(=O)Oc2ccc(CCC(=O)O)n3ccnc23)cc1 number=100
compound=N=C(N)Nc1ccc(C(=O)Oc2ccc(CCC(=O)O)n3ncnc23)cc1 number=100
compound=N=C(N)Nc1ccc(C(=O)Oc2cc(CCC(=O)O)cn3ncnc23)cc1 number=100
compound=C#CCOCCOCC#Cc1ccc(CC(=O)O)n2ncnc12 number=99.6
compound=CS(=O)(=O)NC(=O)Cc1ccc(OC(=O)c2ccc(NC(=N)N)cc2)c2ncnn12 number=100

# Activity of Cc1cc(C(=O)Oc2ccc(CC(=O)O)n3ncnc23)ccc1NC(=N)N = 8.4

# Activity of N=C(N)NCc1ccc(C(=O)Oc2ccc(CC(=O)O)n3ncnc23)cc1 = 19.9

# Activity of CC(=N)Nc1ccc(C(=O)Oc2ccc(CC(=O)O)n3ncnc23)cc1 = 68

---

organism: Bos taurus; assay: Inhibition of bovine trypsin assessed as protease activity using D-CHA-AR-AMC as substrate at 1 uM by fluorescence assay relative to control; parameters: scale not given: the % may be the effect or the level left
measuredParameter: Activity (%)
Give just the number in %; leave the unit off.

Please review the entries below; each comes with its answer.
smilesrepr=N=C(N)Nc1ccc(C(=O)Oc2ccc(CC(=O)O)n3ncnc23)c(F)c1 measuredparameter=Activity number=99.7
smilesrepr=N=C(NN)c1ccc(C(=O)Oc2ccc(CC(=O)O)n3ncnc23)cc1 measuredparameter=Activity number=2.74
smilesrepr=N=C(N)Nc1ccc(C(=O)Oc2ccc(CC(=O)O)n3ncnc23)c(C(F)(F)F)c1 measuredparameter=Activity number=16.6
smilesrepr=N=C(N)Nc1ccc(C(=O)Oc2ccc(CC(=O)O)n3ncnc23)c(Cl)c1 measuredparameter=Activity number=97.6

Please look at the following molecule next.
# Activity of N=C(N)Nc1ccc(C(=O)Oc2ccc(CC(=O)N(CC(=O)O)CC(=O)O)n3ncnc23)cc1 = 99.9
